// values below are reported MIC
- System: Mycobacterium tuberculosis H37Rv
- assay-comment: MIC determination by resazurin microtiter plate assay (REMA) with CellTiter-Blue
- Format: cell-based
- settings: M. tuberculosis H37Rv, 7 days, two-fold dilutions 100 to 1.56 μg/mL, Gompertz fit
Answer format: numeric, mg/L implied, no suffix.

Recorded MIC, per entry:
molecule: OCCCC#CC#CC#CC#CCCCO
MIC (mg/L): 17.88
--
molecule: COc1c(C=O)c(O)cc2c1C(=O)c1ccccc1C2=O
MIC (mg/L): 13.07

Requested read-out: MIC. Entry: COC(=O)C1=C(N)Oc2cc(O)c3c(C)cc(=O)oc3c2C1c1ccc([N+](=O)[O-])cc1 (stereo not shown) 29.13

Requested read-out: MIC. Entry: CC1(C)C=Cc2cc3c(cc2O1)O[C@H]1c2ccc(O)cc2OC[C@@H]31 49.22
